Data origin, for the record: patent US8901133B2

The following molecules have recorded IC50 on PI3Kγ (Homo sapiens, UniProt P48736).
Sequence (P48736 whole entry): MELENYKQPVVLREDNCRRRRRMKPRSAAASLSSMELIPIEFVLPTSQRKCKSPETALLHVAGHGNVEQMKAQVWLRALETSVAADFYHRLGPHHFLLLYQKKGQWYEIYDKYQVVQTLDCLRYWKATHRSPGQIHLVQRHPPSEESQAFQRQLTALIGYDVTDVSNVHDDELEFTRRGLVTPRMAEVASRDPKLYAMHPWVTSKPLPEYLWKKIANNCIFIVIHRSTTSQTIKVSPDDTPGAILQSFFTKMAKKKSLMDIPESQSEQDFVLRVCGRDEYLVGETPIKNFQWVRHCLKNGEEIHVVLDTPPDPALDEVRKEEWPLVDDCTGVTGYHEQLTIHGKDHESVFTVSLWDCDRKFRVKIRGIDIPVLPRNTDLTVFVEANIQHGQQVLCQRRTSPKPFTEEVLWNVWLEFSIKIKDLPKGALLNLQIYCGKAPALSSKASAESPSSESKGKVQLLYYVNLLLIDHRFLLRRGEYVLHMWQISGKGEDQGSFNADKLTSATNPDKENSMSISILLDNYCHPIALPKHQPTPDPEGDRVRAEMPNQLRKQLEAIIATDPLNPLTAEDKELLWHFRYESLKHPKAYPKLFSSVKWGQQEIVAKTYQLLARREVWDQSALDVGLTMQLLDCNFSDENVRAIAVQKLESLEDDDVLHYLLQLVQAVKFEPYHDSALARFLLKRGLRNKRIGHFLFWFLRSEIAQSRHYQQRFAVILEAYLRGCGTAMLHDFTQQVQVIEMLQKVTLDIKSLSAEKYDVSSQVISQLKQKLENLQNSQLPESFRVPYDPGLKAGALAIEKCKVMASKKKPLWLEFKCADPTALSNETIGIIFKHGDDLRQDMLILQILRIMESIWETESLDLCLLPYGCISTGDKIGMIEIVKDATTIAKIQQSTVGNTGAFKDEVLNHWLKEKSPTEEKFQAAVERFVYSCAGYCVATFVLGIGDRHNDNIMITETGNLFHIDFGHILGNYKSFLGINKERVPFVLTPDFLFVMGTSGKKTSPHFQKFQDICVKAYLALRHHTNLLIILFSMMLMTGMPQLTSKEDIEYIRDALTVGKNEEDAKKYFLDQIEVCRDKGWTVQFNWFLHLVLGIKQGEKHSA

A selection of reference data follows.
C[C@H](Nc1ncnc2scnc12)c1cc2cccc(Cl)c2c(C(=O)NC2CCC(O)CC2)n1 (stereo partly shown) [Compound 214]; < 10 µM
C[C@H](Nc1ccnn2ccnc12)c1cc2cccc(Cl)c2c(C(=O)N2CCOCC2)n1 [Compound 188]; < 1 µM
C[C@H](Nc1ccnn2ccnc12)c1cc2cccc(Cl)c2c(C(=O)N2C3CCC2COC3)n1 [Compound 189]; < 10 µM
C[C@H](Nc1ncnc2[nH]cnc12)c1cc2cccc(Cl)c2c(C(=O)N2C3CCC2COC3)n1 [Compound 16]; < 10 µM
C[C@H](Nc1ncnc2[nH]cnc12)c1cc2cccc(Cl)c2c(SCC[N+]2([O-])CCOCC2)n1 [Compound 94]; < 1 µM

Please look at the items below and tell me IC50 for each one, in order.
1. C[C@H](Nc1ncnc2[nH]cnc12)c1cc2cccc(-c3cnn(C)c3)c2c(CCN2CCOCC2)n1 [Compound 157]
2. C[C@H](Nc1ncnc2[nH]cnc12)c1cc2cccc(Cl)c2c(C(=O)NC2CCC(O)CC2)n1 (stereo partly shown) [Compound 58]

1: < 10 µM; 2: < 10 µM

* * *

Consider the following compounds; for each one, report its IC50.
Target: UniProt:O00329

Provide each entry's IC50 from the list below.
1. C[C@H](Nc1ncnc2[nH]cnc12)c1cc2cccc(Cl)c2c(CN2CCOCC2)n1 [Compound 7]
2. C[C@H](Nc1ncnc2scnc12)c1cc2cccc(Cl)c2c(C(=O)N2CCC(F)(F)CC2)n1 [Compound 228]
3. C[C@H](Nc1ncnc2[nH]cnc12)c1cc2cccc(C(F)(F)F)c2c(N2CCN(C)CC2)n1 [Compound 111]
4. C[C@H](Nc1ncnc2[nH]cc(C#N)c12)c1cc2cccc(Cl)c2c(C(=O)N2C3CCC2COC3)n1 [Compound 206]

1. < 100 nM
2. < 100 nM
3. < 1000 nM
4. < 100 nM

List the reported IC50 of each compound below.
1. C[C@H](Nc1ncnc2scnc12)c1cc2cccc(Cl)c2c(C(=O)NC2CCC(O)CC2)n1 (some centres unmarked) [Compound 214]
2. C[C@H](Nc1cc(Cl)nn2ccnc12)c1cc2cccc(Cl)c2c(CCN2CCOCC2)n1 [Compound 76]
3. C[C@H](Nc1ncnc2cccnc12)c1cc2cccc(-c3cnn(C)c3)c2c(CCN2CCOCC2)n1 [Compound 154]
4. Cc1cccc2cc([C@H](C)Nc3ncnc4cccnc34)nc(C(=O)N3CCOCC3)c12 [Compound 166]

1: < 100 nM; 2: < 10000 nM; 3: < 1000 nM; 4: < 100 nM

* * *

Entries below carry reported IC50 on PI3Kδ (Homo sapiens, UniProt O00329).
Sequence (O00329 whole entry): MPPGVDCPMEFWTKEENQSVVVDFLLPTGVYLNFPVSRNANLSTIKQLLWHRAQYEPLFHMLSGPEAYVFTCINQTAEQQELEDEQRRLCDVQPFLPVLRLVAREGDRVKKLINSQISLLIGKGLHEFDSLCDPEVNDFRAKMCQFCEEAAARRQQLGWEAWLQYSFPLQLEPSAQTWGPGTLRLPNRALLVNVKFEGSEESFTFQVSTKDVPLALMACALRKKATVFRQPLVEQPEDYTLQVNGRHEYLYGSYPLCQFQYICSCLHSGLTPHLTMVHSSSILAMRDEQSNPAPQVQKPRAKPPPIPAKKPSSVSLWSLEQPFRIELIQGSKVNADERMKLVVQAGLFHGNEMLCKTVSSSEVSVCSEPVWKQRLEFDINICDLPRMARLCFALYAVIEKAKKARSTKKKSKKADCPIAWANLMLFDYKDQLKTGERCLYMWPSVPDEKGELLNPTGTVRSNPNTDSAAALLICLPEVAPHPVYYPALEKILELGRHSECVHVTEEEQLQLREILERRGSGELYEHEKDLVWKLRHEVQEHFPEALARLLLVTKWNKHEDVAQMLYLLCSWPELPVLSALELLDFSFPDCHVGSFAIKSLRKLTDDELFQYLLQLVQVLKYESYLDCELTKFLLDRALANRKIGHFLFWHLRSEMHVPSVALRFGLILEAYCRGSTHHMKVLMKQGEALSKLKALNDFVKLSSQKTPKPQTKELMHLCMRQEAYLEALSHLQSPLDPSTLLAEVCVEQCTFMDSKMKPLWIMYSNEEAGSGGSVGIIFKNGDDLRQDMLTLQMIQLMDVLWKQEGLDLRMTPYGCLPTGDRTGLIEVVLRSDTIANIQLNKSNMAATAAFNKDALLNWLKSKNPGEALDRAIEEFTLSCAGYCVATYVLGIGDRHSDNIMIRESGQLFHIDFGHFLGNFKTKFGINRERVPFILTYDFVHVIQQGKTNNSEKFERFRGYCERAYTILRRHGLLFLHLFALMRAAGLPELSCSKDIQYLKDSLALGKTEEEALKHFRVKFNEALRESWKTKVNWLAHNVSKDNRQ
Sequence (P27986 whole entry partner): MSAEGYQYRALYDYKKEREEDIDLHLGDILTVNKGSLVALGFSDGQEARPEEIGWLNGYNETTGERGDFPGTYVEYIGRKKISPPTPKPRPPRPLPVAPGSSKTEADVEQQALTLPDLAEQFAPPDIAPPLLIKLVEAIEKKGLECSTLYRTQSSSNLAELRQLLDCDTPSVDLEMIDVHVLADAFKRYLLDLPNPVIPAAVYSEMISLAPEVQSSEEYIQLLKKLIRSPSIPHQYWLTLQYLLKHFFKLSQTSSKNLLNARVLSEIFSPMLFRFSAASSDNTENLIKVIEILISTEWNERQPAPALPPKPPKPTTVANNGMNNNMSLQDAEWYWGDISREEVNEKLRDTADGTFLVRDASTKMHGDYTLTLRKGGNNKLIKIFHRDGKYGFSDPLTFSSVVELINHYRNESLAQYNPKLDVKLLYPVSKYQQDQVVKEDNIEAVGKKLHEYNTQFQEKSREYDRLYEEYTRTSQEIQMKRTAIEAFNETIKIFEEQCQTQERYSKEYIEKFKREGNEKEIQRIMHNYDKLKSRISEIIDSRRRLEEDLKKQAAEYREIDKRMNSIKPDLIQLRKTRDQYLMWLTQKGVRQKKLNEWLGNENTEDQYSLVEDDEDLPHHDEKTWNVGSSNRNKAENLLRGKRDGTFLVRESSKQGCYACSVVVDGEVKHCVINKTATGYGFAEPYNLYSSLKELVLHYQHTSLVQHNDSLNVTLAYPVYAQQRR

Please review the following examples before continuing.
C[C@H](Nc1ncnc2scnc12)c1cc2cccc(Cl)c2c(OC2CCN(S(C)(=O)=O)CC2)n1; < 100 nM
C[C@H](Nc1ncnc2scnc12)c1cc2cccc(Cl)c2c(C(=O)N2CCNC(=O)C2)n1; < 100 nM
Cc1nc([C@H](C)Nc2ncnc3[nH]cnc23)cc2cccc(C(=O)N3C4CCC3COC4)c12; < 10000 nM

Give the reported IC50 for this compound. `C[C@H](Nc1ccnc2ccnn12)c1cc2cccc(Cl)c2c(OC2CCN(S(C)(=O)=O)CC2)n1`
< 1000 nM

* * *

Molecular target: PI3Kα (Homo sapiens)
Endpoint: IC50

Some solved entries appear below for comparison.
Cc1nc(-c2nc([C@H](C)Nc3ncnc4[nH]cnc34)cc3cccc(Cl)c23)no1; > 10 µM
C[C@H](Nc1ncnc2scnc12)c1cc2cccc(Cl)c2c(OCCN2CCCC2)n1; < 1 µM
Cc1cccc2cc([C@H](C)Nc3ncnc4cccnc34)nc(CCN3CCOCC3)c12; < 10 µM

Give one value of IC50 per listed compound.
1. C[C@H](Nc1ncnc2[nH]cnc12)c1cc2cccc(-c3cnn(C)c3)c2c(Cl)n1
2. C[C@H](Nc1ncnc2[nH]cnc12)c1nc(CCN2CCOCC2)c2c(Cl)cccc2c1F
3. C[C@H](Nc1ncnc2cccnc12)c1cc2cccc(-c3cnn(C)c3)c2c(N2CCN(C)CC2)n1
4. C[C@H](Nc1ccnn2ccnc12)c1cc2cccc(Cl)c2c(C(=O)NC2CCOCC2)n1
5. C[C@H](Nc1ccnc2ccnn12)c1cc2cccc(Cl)c2c(OC2CCN(S(C)(=O)=O)CC2)n1

> 10 µM
> 10 µM
> 10 µM
> 10 µM
> 10 µM

* * *

A short record of IC50 observed with PI3Kδ (Homo sapiens, UniProt O00329) follows.

C[C@H](Nc1ncnc2scnc12)c1cc2cccc(Cl)c2c(C(=O)NC2CCN(C)CC2)n1; < 100 nM
C[C@H](Nc1ncnc2[nH]cnc12)c1cc2cccc(Cl)c2c(C(=O)N2CCN[C@@H](C)C2)n1; < 100 nM
C[C@H](Nc1ncnc2[nH]cnc12)c1cc2cccc(Cl)c2c(OCC(C)(C)O)n1; < 1000 nM
C[C@H](Nc1ncnc2cccnc12)c1cc2cccc(Cl)c2c(C(=O)N2CCC(F)(F)CC2)n1; < 1000 nM
C[C@H](Nc1ncnc2cccnc12)c1cc2cccc(-c3cnn(C)c3)c2c(C(=O)N2C3CCC2COC3)n1; < 1000 nM
C[C@H](Nc1ncnc2ccccc12)c1cc2cccc(Cl)c2c(C(=O)N2CCOCC2)n1; < 100 nM

Please turn your attention to the following entry.
Fill in IC50 for record `C[C@H](Nc1ncnc2[nH]cnc12)c1cc2cccc(Cl)c2c(CN2CCC(F)(F)C2)n1`
< 1000 nM

* * *

Listed here: compounds with reported IC50 for UniProt:P48736.

Some compounds with known IC50 results, for comparison:
C[C@H](Nc1ncnc2scnc12)c1cc2cccc(Cl)c2c(C(=O)N2CCC(O)CC2)n1; < 10 µM
C[C@H](Nc1ncnc2[nH]cc(C(N)=O)c12)c1cc2cccc(Cl)c2c(C(=O)N2C3CCC2COC3)n1; < 0.1 µM
C[C@H](Nc1ncnc2scnc12)c1cc2cccc(Cl)c2c(C(=O)NC2CCOCC2)n1; < 10 µM
C[C@H](Nc1ncnc2[nH]cnc12)c1cc2cccc(Cl)c2c(C(=O)NC2CCOCC2)n1; < 10 µM
C[C@H](Nc1ncnc2[nH]cnc12)c1cc2cccc(Cl)c2c(CC(=O)N2CCOCC2)n1; < 10 µM
CC1CN(C(=O)c2nc([C@H](C)Nc3ncnc4cccnc34)cc3cccc(Cl)c23)CCO1 (some centres unmarked); < 1 µM
C[C@H](Nc1ncnc2cccnc12)c1cc2cccc(Cl)c2c(N2CCN(C)CC2)n1; < 0.1 µM

# input for lookup
Please look at this compound and report its IC50: `C[C@H](Nc1ncnc2scnc12)c1cc2cccc(Cl)c2c(C(=O)NC2CCNCC2)n1`
> 10 µM

* * *

Target: PI3Kα (Homo sapiens, UniProt P42336)
Sequence (P42336 whole entry): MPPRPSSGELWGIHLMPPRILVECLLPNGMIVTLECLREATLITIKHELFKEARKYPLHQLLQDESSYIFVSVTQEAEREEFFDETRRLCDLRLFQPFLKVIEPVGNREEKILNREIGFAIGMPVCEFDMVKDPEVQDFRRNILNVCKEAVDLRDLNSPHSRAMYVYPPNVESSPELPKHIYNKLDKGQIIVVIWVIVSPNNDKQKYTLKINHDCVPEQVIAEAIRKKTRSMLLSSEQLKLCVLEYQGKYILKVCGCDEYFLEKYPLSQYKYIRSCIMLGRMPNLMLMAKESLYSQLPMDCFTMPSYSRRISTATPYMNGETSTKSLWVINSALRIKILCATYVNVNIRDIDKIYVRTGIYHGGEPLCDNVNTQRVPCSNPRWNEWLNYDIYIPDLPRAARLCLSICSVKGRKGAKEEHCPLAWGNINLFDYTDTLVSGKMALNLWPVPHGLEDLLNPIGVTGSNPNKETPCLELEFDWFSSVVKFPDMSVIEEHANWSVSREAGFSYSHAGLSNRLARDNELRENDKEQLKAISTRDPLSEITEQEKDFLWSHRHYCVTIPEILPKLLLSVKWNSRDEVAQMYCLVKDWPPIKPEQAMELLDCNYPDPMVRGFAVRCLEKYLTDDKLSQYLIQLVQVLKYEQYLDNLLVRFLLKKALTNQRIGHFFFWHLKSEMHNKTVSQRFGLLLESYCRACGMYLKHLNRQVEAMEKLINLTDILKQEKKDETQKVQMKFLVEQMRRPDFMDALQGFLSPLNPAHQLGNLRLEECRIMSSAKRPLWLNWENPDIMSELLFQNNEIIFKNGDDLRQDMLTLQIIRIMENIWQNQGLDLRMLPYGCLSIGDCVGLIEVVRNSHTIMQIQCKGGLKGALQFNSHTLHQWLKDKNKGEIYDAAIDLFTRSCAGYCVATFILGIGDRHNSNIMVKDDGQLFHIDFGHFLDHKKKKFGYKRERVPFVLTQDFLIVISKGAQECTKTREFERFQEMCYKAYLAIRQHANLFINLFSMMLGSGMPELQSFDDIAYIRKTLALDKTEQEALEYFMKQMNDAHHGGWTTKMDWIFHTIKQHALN
Sequence (P27986 whole entry partner): as the sequence (P27986 whole entry partner) above
Answer each item with its documented IC50.

Worked cases, IC50 given:
CC(C)N1CCC(Oc2nc([C@H](C)Nc3ncnc4[nH]cnc34)cc3cccc(Cl)c23)CC1; < 10 µM
C[C@H](Nc1ncnc2cccnc12)c1cc2cccc(Cl)c2c(C(=O)N2CCC(F)(F)CC2)n1; > 10 µM
C[C@H](Nc1ncnc2scnc12)c1cc2cccc(Cl)c2c(C(=O)N2CCC(F)(F)CC2)n1; < 10 µM
Cc1cccc2cc([C@H](C)Nc3ncnc4cccnc34)nc(OC3CCN(C(C)C)CC3)c12; < 10 µM

Below are some compounds; for each one, tell me its IC50.
1. Cc1nc([C@H](C)Nc2ncnc3[nH]cnc23)cc2cccc(-c3cnn(C)c3)c12
2. C[C@H](NC(=O)c1cnc2cccnn12)c1cc2cccc(Cl)c2c(C(=O)N2CCOCC2)n1
3. C[C@H](Nc1ncnc2cccnc12)c1cc2cccc(Cl)c2c(C(=O)N2C3CCC2COC3)n1
4. C[C@H](Nc1ncnc2scnc12)c1cc2cccc(Cl)c2c(C(=O)N2CCS(=O)(=O)CC2)n1
5. CC(C)N1CCC(Oc2nc([C@H](C)Nc3ncnc4scnc34)cc3cccc(Cl)c23)CC1

["< 10 µM", "> 10 µM", "< 10 µM", "> 10 µM", "< 10 µM"]

For every item in the list below, what is its measured IC50?
1. C[C@H](Nc1ncnc2[nH]cnc12)c1cc2cccc(Cl)c2c(-c2cc(CO)on2)n1
2. C[C@H](Nc1ncnc2[nH]cnc12)c1cc2cccc(Cl)c2c(C(=O)N2CCC(O)CC2)n1
3. C[C@H](Nc1ncnc2cccnc12)c1cc2cccc(Cl)c2c(OC2CCN(S(C)(=O)=O)CC2)n1
4. CC(C)N1CCC(NC(=O)c2nc([C@H](C)Nc3ncnc4scnc34)cc3cccc(Cl)c23)CC1

1. < 10 µM
2. > 10 µM
3. > 10 µM
4. > 10 µM

Hey, can you go through the list below and give me IC50 for every item?
1. C[C@H](Nc1ccnc2ccnn12)c1cc2cccc(Cl)c2c(C(=O)N2CCOCC2)n1
2. C[C@H](Nc1ncnc2cccnc12)c1cc2cccc(Cl)c2c(C(=O)N2CCOCC2)n1
3. C[C@H](Nc1ncnc2[nH]cnc12)c1cc2cccc(-c3cccnc3)c2c(Cl)n1
4. CC(C)N1CCC(Oc2nc([C@H](C)Nc3ncnc4cccnc34)cc3cccc(Cl)c23)CC1

< 10 µM
< 10 µM
> 10 µM
< 10 µM

Batch lookup, IC50 per entry.
1. C[C@H](Nc1ncnc2[nH]cnc12)c1cc2cccc(Cl)c2c(C(=O)N2CCCC2)n1
2. C[C@H](Nc1ncnc2scnc12)c1cc2cccc(Cl)c2c(C(=O)NC2CCN(C)CC2)n1
3. Cc1cccc2cc([C@H](C)Nc3ncnc4cccnc34)nc(OCCN3CCCC3)c12
4. C[C@H](Nc1ncnc2[nH]cnc12)c1cc2cc(F)ccc2c(CCN2CCOCC2)n1
5. C[C@H](Nc1ncnc2scnc12)c1cc2cccc(Cl)c2c(C(=O)NC2CCNCC2)n1
6. C[C@H](Nc1ncnc2scnc12)c1cc2cccc(Cl)c2c(C(=O)NC2CCCC2)n1

> 10 µM
> 10 µM
< 1 µM
> 10 µM
< 10 µM
< 10 µM

For every item below, please supply its IC50.
1. C[C@H](Nc1ccnn2ccnc12)c1cc2cccc(Cl)c2c(C(=O)N2C3CCC2COC3)n1
2. C[C@H](Nc1ncnc2scnc12)c1cc2cccc(Cl)c2c(C(=O)N(C)C)n1
3. C[C@H](Nc1ncnc2[nH]cnc12)c1cc2cccc(Cl)c2c(CC(=O)N2CCN(C)CC2)n1

["> 10 µM", "> 10 µM", "> 10 µM"]

For every item below, please supply its IC50.
1. C[C@H](Nc1ncnc2[nH]cnc12)c1cc2cccc(Cl)c2c(OCC(=O)N2CCN(C)CC2)n1
2. Cc1cccc2cc([C@H](C)Nc3ncnc4[nH]cnc34)nc(C(=O)N3C4CCC3COC4)c12
3. C[C@H](Nc1ncnc2scnc12)c1cc2cccc(Cl)c2c(C(=O)N2C3CCC2COC3)n1
4. C[C@H](Nc1ccnc2ccnn12)c1cc2cccc(Cl)c2c(C(=O)N2C3CCC2COC3)n1
5. C[C@H](Nc1ncnc2[nH]cnc12)c1cc2cccc(Cl)c2c(SCC[N+]2([O-])CCOCC2)n1

["> 10 µM", "> 10 µM", "< 10 µM", "> 10 µM", "< 10 µM"]
